Origin of the recorded values: patent US20160002204A1

# Target System: GLS1 (purified recombinant human GAC) (Homo sapiens)
# Sequence (O94925 55-598 isoform O94925-3 limits assumed): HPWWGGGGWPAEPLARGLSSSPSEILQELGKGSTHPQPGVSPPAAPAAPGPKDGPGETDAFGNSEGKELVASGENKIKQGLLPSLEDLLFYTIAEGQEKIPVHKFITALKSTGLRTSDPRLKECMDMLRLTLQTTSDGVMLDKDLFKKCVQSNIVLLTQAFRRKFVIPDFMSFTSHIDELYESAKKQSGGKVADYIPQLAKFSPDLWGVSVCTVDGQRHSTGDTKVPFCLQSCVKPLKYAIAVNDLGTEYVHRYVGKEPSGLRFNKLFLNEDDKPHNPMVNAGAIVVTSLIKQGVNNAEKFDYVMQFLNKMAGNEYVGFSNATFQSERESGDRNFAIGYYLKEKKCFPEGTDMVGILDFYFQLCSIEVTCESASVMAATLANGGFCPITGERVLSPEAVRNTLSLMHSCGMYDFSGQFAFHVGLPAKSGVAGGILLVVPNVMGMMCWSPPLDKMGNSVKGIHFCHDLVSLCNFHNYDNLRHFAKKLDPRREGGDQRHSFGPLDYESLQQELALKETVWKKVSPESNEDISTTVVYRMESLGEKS
# Measurement Description: GLS1 enzymatic activity assay (dual-coupled, Amplex UltraRed/resorufin)
# Experimental: GLS1 Enzymatic Activity Assay The inhibition of purified recombinant human GAC by varying concentrations of inhibitors is assessed via a dual-coupled enzymatic assay. […] The production of resorufin was monitored on a Perkin Elmer Envision plate reader (excitation 530 nm, emission 590 nm) either in a kinetics or endpoint mode (at 20 minutes). IC50 values were calculated using a four-parameter logistic curve fit.
Measure: IC50

Compound: O=C(Cc1ccccc1)Nc1ccn(CCCCc2nnc(C(=O)NCc3ncccc3F)s2)c(=O)c1
Measure: IC50
Observed Result: 100 to 500 nM
//
Compound: O=C(CC1CCCCC1)Nc1ccn(CCCCn2cc(C(=O)NC(CO)c3ccccc3)nn2)c(=O)c1 (stereo not drawn)
Measure: IC50
Observed Result: 100 to 500 nM
//
Compound: C[C@@H](NC(=O)Nc1ccn(CCCCc2ccc(NC(=O)Cc3ccccc3)nn2)c(=O)n1)c1ccccc1
Measure: IC50
Observed Result: 100 to 500 nM
//
Compound: Cc1ccc(CNC(=O)c2nnc(CCCCn3ccc(NC(=O)C(=O)N4CCCCC4)c(F)c3=O)s2)cn1
Measure: IC50
Observed Result: 100 to 500 nM
//
Compound: O=C(NCc1ccccc1)c1ccn(CCCCn2cc(C(=O)NCc3cccc(OC(F)(F)F)c3)nn2)c(=O)c1
Measure: IC50
Observed Result: < 100 nM
//
Compound: O=C(CN1CC(F)(F)C1)Nc1ccn(CCC(F)Cn2cc(C(=O)NCc3cccc(OC(F)(F)F)c3)nn2)c(=O)c1 (stereo not drawn)
Measure: IC50
Observed Result: < 100 nM
//
Compound: O=C(Nc1ccn(CCC(F)Cn2cc(C(=O)NCc3cccc(OC(F)(F)F)c3)nn2)c(=O)n1)NC1CCC1 (stereo not drawn)
Measure: IC50
Observed Result: 500 to 5000 nM
//
Compound: Cc1ccc(CNC(=O)c2cn(CC(F)CCn3ccc(NC(=O)CC4CCCOC4)cc3=O)nn2)cn1 (stereo not drawn)
Measure: IC50
Observed Result: < 100 nM
//
Compound: O=C(Cc1cccc(OC(F)(F)F)c1)Nc1ccn(CCCCn2cc(C(=O)NCc3cccnc3)nn2)c(=O)c1
Measure: IC50
Observed Result: < 100 nM
//
Compound: O=C(NCc1cccc(C(F)(F)F)c1)c1cn(CCCCn2ccc(NC(=O)C3CCCCC3)cc2=O)nn1
Measure: IC50
Observed Result: < 100 nM

I am curious: what IC50 value has been reported for Cc1ccc(CNC(=O)c2cn(CCCCn3ccc(NC(=O)OC(C)(C)C)cc3=O)nn2)cn1 ?
100 to 500 nM

Fill in: IC50 of O=C(Cc1ccccc1)Nc1ccn(CCCCc2nnc(NC(=O)[C@@H](O)c3ccccc3)s2)c(=O)n1 is ___
< 100 nM

Fill in the blank: the reported IC50 of CC(C)(C)OC(=O)N[C@@H]1CCC[C@@H](C(=O)Nc2ccn(CCC(F)Cn3cc(C(=O)NCc4cccc(OC(F)(F)F)c4)nn3)c(=O)c2)C1 (stereo partly drawn) is ____.
< 100 nM

// returns reported IC50 for input O=C(CN1CCCCC1)Nc1ccn(CCC(F)Cn2cc(C(=O)NCc3cccc(OC(F)(F)F)c3)nn2)c(=O)c1F (stereo not drawn)
< 100 nM

If you can, please state the reported IC50 value of O=C(Cc1ccccc1)Nc1ccn(CCC(F)Cn2cc(C(=O)NCc3cc(C(F)(F)F)ccn3)nn2)c(=O)c1F (stereo not drawn) .
< 100 nM
